- Tested on: SK-MEL-5 melanoma
- MEASUREMENT_NOTES: NCI tumour cell line growth inhibition, 48 h
Parameter GI50: see the listing below.

Cn1cc(C2=C(c3cn(CCCCCSC(=N)N)c4ccccc34)C(=O)NC2=O)c2ccccc21	3.28 µM
CCC(=O)c1c(C(F)(F)F)n([O-])c2cc(F)c(F)cc2[n+]1=O	1.27 µM
CN(CCCNC(=O)CCOCCOCCOCCNC(=O)Cc1ccc2ccc3cccc4ccc1c2c34)CCCNc1cc(-c2ccc3ccccc3c2)nc2ccccc12	0.541 µM

Give the reported value of GI50 for this record: COc1ccc(N=N/C(C(=O)C(F)(F)F)=C(\O)c2ccc(Cl)cc2)cc1
3.63 µM
